Measured values drawn from PubChem BioAssay (NCI) for this set.

# Test system: HS 578T breast
# PROTOCOL SUMMARY: NCI tumour cell line growth inhibition, 48 h

{"columns": ["COMPOUND", "TGI"],
 "data": [
  ["O=[N+]([O-])c1ccc2nc(/C=C(\\O)c3ccc(F)cc3)c(/C=C(\\O)c3ccc(F)cc3)nc2c1", "> 100 µM"],
  ["COc1cccc(NC(=O)CC(=O)N2N=C(C)C(N=Nc3ccc(S(=O)(=O)c4ccc(N=NC5C(=O)N(C(=O)CC(=O)Nc6cccc(OC)c6)N=C5C)cc4)cc3)C2=O)c1 (centres undefined)", "> 100 µM"],
  ["CN(C)c1ccc2cc(-c3ccccc3F)c(N)nc2c1", "18.5 µM"],
  ["CNC(=S)N/N=C/c1cccc(C)n1", "> 100 µM"],
  ["COc1cc[nH]c1/C=C1\\C(=O)Nc2ccc(F)c(I)c21", "> 25 µM"],
  ["CN(C)Cc1cc(N=Nc2ccccc2)cc(CN(C)C)c1O", "> 100 µM"],
  ["Cc1nc2sc(C(=O)Nc3ccccc3)c(N)c2cc1C(=O)/C=C/c1ccccc1", "> 100 µM"],
  ["Cc1ccc(S(N)(=O)=O)cc1", "> 1000 µM"],
  ["C=C1C(=O)O[C@H]2[C@H]1CC/C(COC(=O)N1CCC[C@H]1C(=O)Nc1ccc(OC)c(C(N)=O)c1O)=C\\CC[C@@]1(C)O[C@@H]21", "> 100 µM"],
  ["O=[N+]([O-])c1cn[n+]([O-])c2ccccc12", "29.1 µM"],
  ["Brc1ccc2[nH]cc(-c3nc(-c4c[nH]c5ccccc45)cs3)c2c1", "> 47.9 µM"],
  ["CCOC(=O)CCC(NC(=O)c1ccc(N2CCN(c3c(C)nc(N)nc3N)CC2)cc1)C(=O)OCC (centres undefined)", "> 100 µM"],
  ["Cc1cn(Cc2ccccc2CCl)c(=O)[nH]c1=O", "56.6 µM"],
  ["Cc1cc2c3ccccc3n(C)c2c2c1C(=O)C=CC2=O", "55.2 µM"],
  ["O=C1CCCCc2cccc(O)c21", "> 100 µM"],
  ["CCN(Cc1ccccc1OC)c1ccc(CO)c(Cl)c1", "37.2 µM"],
  ["COc1c(N2CCN(CN3C(=O)C(=Nc4ccc(S(=O)(=O)Nc5ncccn5)cc4)c4ccccc43)C(C)C2)c(F)cc2c(=O)c(C(=O)O)cn(C3CC3)c12 (centres undefined)", "> 50 µM"],
  ["Clc1ccc(C2NN=C3c4ccccc4OCC32)cc1 (centres undefined)", "14.6 µM"],
  ["C=C1CC[C@@H]2[C@](C)(COC(C)=O)[C@H](OC(C)=O)CC[C@@]2(C)[C@@H]1CC(Nc1ccc(S(=O)(=O)Nc2nccc(C)n2)cc1)C1=CCOC1=O (some centres undefined)", "43 µM"],
  ["Oc1ccc(CCCCCCc2ccc(O)cc2)cc1", "37.4 µM"],
  ["CN(C)C(=S)N=Nc1c(O)[nH]c2ccccc12", "67.6 µM"],
  ["Cc1nc2c(sc3nc4ccccc4n32)c(=O)[nH]1", "> 100 µM"],
  ["Cc1cccc(C(O)c2ccncc2)c1O (centres undefined)", "> 100 µM"],
  ["c1ccc(CSc2nc(N3CCOCC3)c3cn[nH]c3n2)cc1", "39.3 µM"],
  ["O=NNc1nc(-c2cccnc2)nc2ccccc12", "> 100 µM"],
  ["O=C(CSCC(=O)N/N=C\\c1ccc(-c2ccccc2)cc1)N/N=C\\c1ccc(-c2ccccc2)cc1", "49.8 µM"],
  ["COc1ccccc1N1CCN(Cn2c(=O)oc3cccnc32)CC1", "> 100 µM"],
  ["COc1ccc2c(c1)c1c(n2CCN2CCCCC2)-c2ccccc2CC1", "28.5 µM"],
  ["OCCCCCCOc1ccc(-c2cc(-c3ccccn3)nc(-c3ccccn3)c2)cc1", "4.61 µM"],
  ["COc1ccc2c3c(c(=O)n(C)c2c1OC)C=CC(C)(C)O3", "78.4 µM"],
  ["ClCc1c(Cl)c(Cl)c(Cl)c(CCl)c1Cl", "5.61 µM"],
  ["S=c1[nH]c(=S)c2cc(Sc3ccc4[nH]c(=S)[nH]c(=S)c4c3)ccc2[nH]1", "56.1 µM"],
  ["Fc1ccc2[nH]c3c(NCCCN4CCOCC4)ncnc3c2c1", "> 100 µM"],
  ["O=C(N/N=C\\c1ccc2ccccc2c1)Nc1ccc([N+](=O)[O-])cc1", "> 100 µM"],
  ["O=S1C2=C(Cc3ccccc3)C(Cc3ccccc3)=C1CCc1cccc(c1)CC2", "48.8 µM"],
  ["CCCCN(Cc1ccc(F)cc1)c1ccc(CO)c(Cl)c1", "40.9 µM"],
  ["COC(=O)/C=c1/c2ccccc2n2nc3ccccc3c12", "> 100 µM"],
  ["COC(=O)c1csc(-c2nc(CCNC(=O)OC(C)(C)C)sc2Br)n1", "> 100 µM"],
  ["Fc1cccc(COc2ccc(Nc3ncnc4cc(-c5ccc[nH]5)sc34)cc2Cl)c1", "21.2 µM"]
]}

---

# System: EKVX NSCLC
# PROTOCOL SUMMARY: NCI tumour cell line growth inhibition, 48 h

{"columns": ["MOLECULE", "COMPARISON OPERATOR", "TGI (µM)"],
 "data": [
  ["COc1cccc(NC(=O)CC(=O)N2N=C(C)C(N=Nc3ccc(S(=O)(=O)c4ccc(N=NC5C(=O)N(C(=O)CC(=O)Nc6cccc(OC)c6)N=C5C)cc4)cc3)C2=O)c1 (stereo not given)", ">", 100],
  ["CC(C)CC1=[N+]=C(NC#N)N=C(CCC(=O)Nc2ccccc2[N+](=O)[O-])C1", ">", 100],
  ["Cc1cccc(C(O)c2ccncc2)c1O (stereo not given)", ">", 100],
  ["O=[N+]([O-])c1cn[n+]([O-])c2ccccc12", "=", 26.1],
  ["Fc1cccc(COc2ccc(Nc3ncnc4cc(-c5ccc[nH]5)sc34)cc2Cl)c1", "=", 3.75]
]}

---

# Tested on: HCT-116 colon
# PROTOCOL SUMMARY: NCI tumour cell line growth inhibition, 48 h
Parameter TGI: see the listing below.

{"columns": ["COMPOUND", "TGI"],
 "data": [
  ["O=C(CN1CCN(c2ccccc2)CC1)N1CCc2c([nH]c3ccccc23)C1c1cccnc1 (stereo not given)", "21.3 µM"],
  ["Cc1cccc(NC(=S)Nc2ccccc2Cl)n1", "> 100 µM"],
  ["Cc1nc2c(sc3nc4ccccc4n32)c(=O)[nH]1", "> 100 µM"],
  ["CCCCCCCCCCCCCCCC(=O)OCC1OC(n2c(O)c(N=NC(N)=S)c3ccc([N+](=O)[O-])cc32)C(OC(C)=O)C1OC(C)=O (stereo not given)", "> 100 µM"],
  ["CC(=O)[O-].CC(=O)[O-].[NH2-].[Pt+2].c1ccc2cnccc2c1", "33.7 µM"]
]}

---

# Test system: SNB-19 CNS
# PROTOCOL SUMMARY: NCI tumour cell line growth inhibition, 48 h
Parameter TGI: see the listing below.

{"columns": ["COMPOUND", "TGI"],
 "data": [
  ["COc1c(N2CCN(CN3C(=O)C(=Nc4ccc(S(=O)(=O)Nc5ncccn5)cc4)c4ccccc43)C(C)C2)c(F)cc2c(=O)c(C(=O)O)cn(C3CC3)c12 (stereo not given)", "31.3 µM"],
  ["CC12CCC(=O)C=C1CCC1C2C(O)CC2(C)C(c3csc(N)n3)CCC12 (stereo not given)", "> 100 µM"],
  ["COC(=O)c1csc(-c2nc(CCNC(=O)OC(C)(C)C)sc2Br)n1", "> 100 µM"],
  ["CN(C)CCOc1ccc2c(c1)C/C(=C/c1ncc([N+](=O)[O-])n1C)C2=O", "15.3 µM"],
  ["Cc1ccc(Nc2cc(=O)[nH]c(=S)[nH]2)cc1", "> 100 µM"],
  ["CSc1ccc(/C=C2\\N=C(c3ccccc3)N(c3nc4ccc(Sc5ccccc5)cc4[nH]3)C2=O)cc1", "> 89.2 µM"],
  ["CC1(C)CC(=O)c2c(nc3ccc4ccccc4c3c2-c2ccc(NC(=O)CCC(=O)Nc3ccc(-c4c5c(nc6ccc7ccccc7c46)CC(C)(C)CC5=O)cc3)cc2)C1", "> 100 µM"],
  ["Cc1cc2c3ccccc3n(C)c2c2c1C(=O)C=CC2=O", "73 µM"],
  ["O=C(O)c1cc(=O)c2[nH]c3ccccc3c2s1", "> 100 µM"],
  ["CCCCCCCCCCCCCCCCCCCCCC(=O)Nc1ccn(C2OC(CO)C(O)C2O)c(=O)n1 (stereo not given)", "> 100 µM"]
]}

---

# System: M14 melanoma
# PROTOCOL SUMMARY: NCI tumour cell line growth inhibition, 48 h; in the data active means GI50 below about 0.43 µM; inactive means the rest
Classes used: 1 (yes) (active), 0 (no) (inactive)

{"columns": ["COMPOUND", "CLASS LABEL"],
 "data": [
  ["Clc1nc(Cl)c2ncn(Cc3ccc(COc4cccc(OCc5ccc(Cn6cnc7c(Cl)nc(Cl)nc76)cc5)c4)cc3)c2n1", "0 (no)"],
  ["C=C1C(=O)O[C@H]2[C@H]1CC/C(COC(=O)N1CCC[C@H]1C(=O)Nc1ccc(OC)c(C(N)=O)c1O)=C\\CC[C@@]1(C)O[C@@H]21", "0 (no)"],
  ["O=C1C(Cl)=C(Nc2cccc(O)c2)C(=O)N1c1cc(Cl)c(Cl)cc1Cl", "0 (no)"],
  ["ClCc1c(Cl)c(Cl)c(Cl)c(CCl)c1Cl", "0 (no)"],
  ["Cn1ccnc1C(=O)/C=C/c1ccc(CC(=O)Nc2ccccc2)cc1", "0 (no)"],
  ["CCOP(=O)(OCC)C(NC(c1ccccc1)c1ccccc1)c1cccc2ccccc12 (configuration not stated)", "0 (no)"],
  ["COc1cc(Nc2nc(N[C@H]3CCCC[C@@H]3N)nc3cc[nH]c(=O)c23)cc(OC)c1", "1 (yes)"],
  ["C[C@@H]1CN(CC(=O)N2CC(C)(C)c3nc(CO)c(Cc4ccc(F)cc4)cc32)[C@@H](CN2CCOC[C@H]2C)CN1", "0 (no)"],
  ["CO/N=C(\\C)c1ccc(Nc2cc(-c3ccccc3)nc3c(O)cccc23)cc1", "0 (no)"],
  ["CN(C)c1ccc2cc(-c3ccccc3F)c(N)nc2c1", "0 (no)"],
  ["CN(C)C(=S)N=Nc1c(O)[nH]c2ccccc12", "0 (no)"],
  ["C[C@H]1[C@H](C)CC[C@]2(C(=O)O)CC[C@]3(C)C(=CC[C@@H]4[C@@]5(C)C/C(=C/c6cccnc6)[C@H](O)C(C)(C)[C@@H]5CC[C@]43C)[C@H]12", "0 (no)"]
]}
